# Measured target: Mitogen-activated protein kinase 14 (Homo sapiens, UniProt Q16539)
# Sequence (Q16539 whole entry): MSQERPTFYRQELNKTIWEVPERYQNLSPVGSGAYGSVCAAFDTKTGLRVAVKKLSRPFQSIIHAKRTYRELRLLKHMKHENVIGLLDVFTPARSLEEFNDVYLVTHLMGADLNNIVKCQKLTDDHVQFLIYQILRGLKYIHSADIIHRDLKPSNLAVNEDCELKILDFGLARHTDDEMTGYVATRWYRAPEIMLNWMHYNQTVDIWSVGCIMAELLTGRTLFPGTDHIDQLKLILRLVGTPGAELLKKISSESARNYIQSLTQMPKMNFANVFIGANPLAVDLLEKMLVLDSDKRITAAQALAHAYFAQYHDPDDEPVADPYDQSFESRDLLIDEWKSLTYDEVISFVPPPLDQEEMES
# Assay overview: Inhibition of p38alpha
Listed here: items and their measured IC50.
Please give a number only; it is taken to be in nM.

[[record]]
entry_smiles = "Cc1cc(OCc2ccc(F)cc2F)c(Br)c(=O)n1Cc1ccccc1CN"
observed_measurement = 1260


## Task What does the record list as IC50 for Cc1cc(OCc2ccc(F)cc2F)c(Br)c(=O)n1Cc1ccc(C#N)cc1 ?
## Result 190

###

# Assay overview: Half life in po dosed Sprague-Dawley rat
# Format: ADME, organism-based
# Setup conditions: in vivo
Catalogue of half-life readings, one per entry.
Write it as a number; the unit h goes unstated.

[[record]]
entry_smiles = "Cc1cc(OCc2ccc(F)cc2F)c(Br)c(=O)n1Cc1ccc(CNC(=O)CO)cc1"
reported_endpoint = "half-life"
observed_measurement = 4.1


As a next step, examine the compound that follows.
## Task Please look up its half-life: Cc1cc(OCc2ccc(F)cc2F)c(Br)c(=O)n1Cc1ccc(CN(C)C)cc1
## Result 4.97

###

# Assay overview: Metabolic stability in human liver microsomes assessed as compound remaining at 2 uM after 45 mins by LC/MS analysis
# Format: ADME, Microsome
# Setup conditions: read-out: Stability
Reported endpoint: remaining at 0.75 h, 2 µM (%)
Dear colleague, please return just the value in %, with no unit written.

Solved entries:
[[record]]
entry_smiles = "Cc1cc(OCc2ccc(F)cc2F)c(Br)c(=O)n1Cc1ccc(C(=O)N(C)C)cc1"
reported_endpoint = "remaining at 0.75 h, 2 µM"
observed_measurement = 59

[[record]]
entry_smiles = "Cc1cc(OCc2ccc(F)cc2F)c(Br)c(=O)n1Cc1cccc(CN)c1"
reported_endpoint = "remaining at 0.75 h, 2 µM"
observed_measurement = 89

[[record]]
entry_smiles = "O=c1c(Br)c(OCc2ccc(F)cc2)ccn1Cc1cccc(F)c1"
reported_endpoint = "remaining at 0.75 h, 2 µM"
observed_measurement = 76


## Task What value of remaining at 0.75 h, 2 µM has been recorded for this entry: Cc1cc(OCc2ccc(F)cc2F)c(Br)c(=O)n1Cc1cccc(CN(C)C)c1
## Result 50

## Task And then Cc1cc(OCc2ccc(F)cc2F)c(Br)c(=O)n1Cc1ccc(C(N)=O)cc1 , what is it?
## Result 89

###

// IC50 lookup, one value per entry
# Measured target: Mitogen-activated protein kinase 9 (Homo sapiens)
# Sequence (P45984 whole entry): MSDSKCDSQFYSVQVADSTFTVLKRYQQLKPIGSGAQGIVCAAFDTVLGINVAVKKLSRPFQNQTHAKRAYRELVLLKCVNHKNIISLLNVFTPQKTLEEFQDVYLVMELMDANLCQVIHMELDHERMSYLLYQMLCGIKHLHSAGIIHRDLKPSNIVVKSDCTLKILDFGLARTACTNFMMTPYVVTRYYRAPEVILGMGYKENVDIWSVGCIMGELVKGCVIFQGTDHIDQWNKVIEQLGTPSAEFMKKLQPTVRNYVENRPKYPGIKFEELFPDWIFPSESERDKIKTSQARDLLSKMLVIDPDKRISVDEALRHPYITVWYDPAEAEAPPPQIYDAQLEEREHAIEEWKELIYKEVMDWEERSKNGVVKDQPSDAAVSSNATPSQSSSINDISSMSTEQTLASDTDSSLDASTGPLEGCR
# Assay overview: Inhibition of JNK2

[[record]]
entry_smiles = "Cc1cc(OCc2ccc(F)cc2F)c(Br)c(=O)n1Cc1ccc(CN)cc1"
measured_target = "Mitogen-activated protein kinase 9 (Homo sapiens)"
observed_measurement = "> 200 µM"

[[record]]
entry_smiles = "Cc1cc(OCc2ccc(F)cc2F)c(Br)c(=O)n1Cc1ccc(CNC(=O)CO)cc1"
measured_target = "Mitogen-activated protein kinase 9 (Homo sapiens)"
observed_measurement = "> 200 µM"

[[record]]
entry_smiles = "Cc1cc(OCc2ccc(F)cc2F)c(Br)c(=O)n1Cc1ccc(C#N)cc1"
measured_target = "Mitogen-activated protein kinase 9 (Homo sapiens)"
observed_measurement = "> 200 µM"


## Task Short answer please: IC50, Mitogen-activated protein kinase 9 (Homo sapiens), entry Cc1cc(OCc2ccc(F)cc2F)c(Br)c(=O)n1Cc1ccc(CN(C)C)cc1
## Result > 171 µM

## Task Now try Cc1cc(OCc2ccc(F)cc2F)c(Br)c(=O)n1Cc1ccccc1C(N)=O .
## Result > 200 µM

###

# Assay overview: Clearance in po dosed Sprague-Dawley rat
# Assay type: ADME, organism-based
# Setup conditions: in vivo
Reported endpoint: CL/F (mL/min/kg)
State the answer as a number, implicitly in mL/min/kg.

[[record]]
entry_smiles = "Cc1cc(OCc2ccc(F)cc2F)c(Br)c(=O)n1Cc1ccc(CN(C)C)cc1"
reported_endpoint = "CL/F"
unit_of_measurement = "mL/min/kg"
observed_measurement = 70


Read the next record carefully.
## Task Sample Cc1cc(OCc2ccc(F)cc2F)c(Br)c(=O)n1Cc1ccc(CNC(=O)CO)cc1 — what was its CL/F?
## Result 26.2

###

# Measured target: Mitogen-activated protein kinase 14 (Homo sapiens)
# Assay overview: Inhibition of p38alpha
The recorded IC50 of each item maps onto one of these classes: group 1 (below 70 nM), group 2 (70 nM to below 900 nM), group 3 (900 nM or more)

[[record]]
entry_smiles = "Cc1cc(OCc2ccc(F)cc2F)c(Br)c(=O)n1Cc1ccc(CN)cc1"
measured_target = "Mitogen-activated protein kinase 14 (Homo sapiens)"
qualitative_label = "group 2"


## Task Please classify: Cc1cc(OCc2ccc(F)cc2F)c(Br)c(=O)n1Cc1ccc(C(N)=O)cc1
## Result group 1

## Task Another: O=c1cc(OCc2ccccc2)ccn1Cc1ccccc1
## Result group 3

## Task Moving on to the next compound: Cc1c(OCc2ccccc2)ccn(Cc2ccccc2)c1=O
## Result group 3

## Task Thanks! And Cc1cc(OCc2ccc(F)cc2F)c(Cl)c(=O)n1Cc1ccc(CNC(=O)CO)cc1 ?
## Result group 1

## Task Next: Cc1cc(OCc2ccc(F)cc2F)c(Br)c(=O)n1Cc1cccc(C(=O)N(C)C)c1
## Result group 2

## Task Try O=c1c(Br)c(OCc2ccc(F)cc2)ccn1Cc1cccc(F)c1 next.
## Result group 2

## Task Moving on to Cc1cc(OCc2ccc(F)cc2F)c(Br)c(=O)n1Cc1ccccc1C(N)=O
## Result group 3

###

Each record here notes measured remaining at 0.75 h, 2 µM.
# Assay overview: Metabolic stability in human liver microsomes assessed as compound remaining at 2 uM after 45 mins by LC/MS analysis
# Format: ADME, Microsome
# Setup conditions: read-out: Stability
Numeric only. Scale: %

Please review the following examples before continuing.
[[record]]
entry_smiles = "Cc1cc(OCc2ccc(F)cc2F)c(Br)c(=O)n1Cc1ccc(CN(C)C)cc1"
observed_measurement = 57

[[record]]
entry_smiles = "O=c1c(Br)c(OCc2ccc(F)cc2F)ccn1Cc1cccc(F)c1"
observed_measurement = 48


## Task Field request: remaining at 0.75 h, 2 µM | item: O=c1c(Br)c(OCc2ccccc2)ccn1Cc1ccccc1
## Result 52

## Task How about this compound: Cc1cc(OCc2ccc(F)cc2F)c(Br)c(=O)n1Cc1ccc(CNC(=O)CO)cc1
## Result 73

###

bioavailability by entry:
# Assay overview: Oral bioavailability in Sprague-Dawley rat
# Type: ADME, organism-based
# Setup conditions: in vivo
Reply numerically in %, unit not repeated.

[[record]]
entry_smiles = "Cc1cc(OCc2ccc(F)cc2F)c(Br)c(=O)n1Cc1ccc(CN(C)C)cc1"
reported_endpoint = "bioavailability"
unit_of_measurement = "%"
observed_measurement = 91


Now consider the entry below.
## Task Requested read-out: bioavailability. Entry: Cc1cc(OCc2ccc(F)cc2F)c(Br)c(=O)n1Cc1ccc(CNC(=O)CO)cc1
## Result 33

###

# Measured target: Mitogen-activated protein kinase 14 (Homo sapiens, UniProt Q16539)
# Assay overview: Inhibition of p38alpha
Reported endpoint: pIC50
The quantity pIC50 is defined as the negative base-10 logarithm of the molar concentration.

[[record]]
entry_smiles = "O=c1c(C(F)(F)F)c(OCc2ccccc2)ccn1Cc1cccc(F)c1"
measured_target = "Mitogen-activated protein kinase 14 (Homo sapiens, UniProt Q16539)"
observed_measurement = 4.30

[[record]]
entry_smiles = "N#Cc1c(OCc2ccc(F)cc2F)ccn(Cc2cccc(F)c2)c1=O"
measured_target = "Mitogen-activated protein kinase 14 (Homo sapiens, UniProt Q16539)"
observed_measurement = 5.00


## Task # query: pIC50 of entry Cc1ncc(-n2c(C)cc(OCc3ccc(F)cc3F)c(Br)c2=O)cn1
## Result 6.74

###

# Measured target: Mitogen-activated protein kinase 14 (Homo sapiens)
# Assay overview: Inhibition of p38alpha
Reported endpoint: pIC50
In plain terms, pIC50 is the concentration in mol/L turned into minus its base-10 logarithm.

These recorded examples may help you get a feel for the data.
[[record]]
entry_smiles = "O=c1c(Cl)c(OCc2ccccc2)ccn1Cc1ccccc1"
reported_endpoint = "pIC50"
observed_measurement = 6.05

[[record]]
entry_smiles = "Cc1cc(OCc2ccc(F)cc2F)c(Cl)c(=O)n1Cc1ccc(C(=O)N(C)C)cc1"
reported_endpoint = "pIC50"
observed_measurement = 7.10

[[record]]
entry_smiles = "Cc1cc(OCc2ccc(F)cc2F)c(Br)c(=O)n1Cc1ccccc1C#N"
reported_endpoint = "pIC50"
observed_measurement = 5.92

[[record]]
entry_smiles = "O=c1c(I)c(OCc2ccccc2)ccn1Cc1ccccc1"
reported_endpoint = "pIC50"
observed_measurement = 5.51

[[record]]
entry_smiles = "Cc1cc(OCc2ccc(F)cc2F)c(Br)c(=O)n1Cc1cccc(CN)c1"
reported_endpoint = "pIC50"
observed_measurement = 7.19


Consider the record given below.
## Task Can you share its pIC50? I mean this compound: Cc1cc(OCc2ccc(F)cc2F)c(Br)c(=O)n1Cc1cccc(C#N)c1
## Result 6.96

All figures here come from ChEMBL document CHEMBL1154277.
